The compounds below each have a reported pIC50 tested on BTK (Homo sapiens, UniProt Q06187); the values come from various publications.
Sequence (Q06187 whole entry): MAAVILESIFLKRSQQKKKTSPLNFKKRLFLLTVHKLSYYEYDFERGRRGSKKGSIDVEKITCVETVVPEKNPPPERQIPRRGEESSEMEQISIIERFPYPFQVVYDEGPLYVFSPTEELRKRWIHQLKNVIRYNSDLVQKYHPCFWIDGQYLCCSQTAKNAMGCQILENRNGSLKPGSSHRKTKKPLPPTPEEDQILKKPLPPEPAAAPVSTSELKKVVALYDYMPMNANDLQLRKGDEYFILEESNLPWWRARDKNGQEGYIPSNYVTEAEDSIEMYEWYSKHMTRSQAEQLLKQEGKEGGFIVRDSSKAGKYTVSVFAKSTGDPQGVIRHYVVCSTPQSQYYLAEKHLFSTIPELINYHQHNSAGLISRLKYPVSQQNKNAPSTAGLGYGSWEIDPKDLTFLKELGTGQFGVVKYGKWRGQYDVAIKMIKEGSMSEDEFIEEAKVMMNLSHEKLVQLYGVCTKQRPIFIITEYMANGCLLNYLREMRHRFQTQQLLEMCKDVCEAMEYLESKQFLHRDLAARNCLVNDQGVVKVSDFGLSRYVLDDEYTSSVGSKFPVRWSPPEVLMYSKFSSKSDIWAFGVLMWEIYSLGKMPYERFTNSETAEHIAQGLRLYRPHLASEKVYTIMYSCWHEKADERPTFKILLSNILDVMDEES
pIC50: −log10 of the molar value.

[
  {
    "compound": "C=CC(=O)N1CCC[C@@H](n2nc(-c3ccc(C(=O)Nc4ccccc4)cc3)c3c(N)ncc(I)c32)C1",
    "pIC50": 8.82
  },
  {
    "compound": "C=CS(=O)(=O)Nc1cccc(Nc2cc(Oc3cccc(C(F)(F)F)c3)ncn2)c1",
    "pIC50": "6.00 to 7.00"
  },
  {
    "compound": "C=CC(=O)Nc1cccc(-n2cc(-c3ccc(Oc4ccccc4F)cc3)c3c(N)n[nH]c(=O)c32)c1",
    "pIC50": "6.00 to 8.00"
  }
]

Value of pIC50 reported for the compound `C[C@H]1CN(C2COC2)CCN1c1ccc(Nc2cc(-c3ccnc(N4CCn5c6c(c(Cl)c5C4=O)CC(C)(C)C6)c3CO)cn(C)c2=O)nc1` is 9.23

Record summary for `C=CC(=O)N1CCC(Nc2cncc(-c3cnc(Nc4cccc(C(F)(F)F)n4)nc3)c2)CC1` : reported pIC50 = 8.05

* * *

Below are IC50 values for BTK (Homo sapiens) collected from several publications.

These solved cases illustrate the format of a correct answer.
[
  {
    "inputSmiles": "C=CC(=O)Nc1cccc(Oc2nc(Nc3ccc(C4=CCN(C)CC4)cc3)nc3ccsc23)c1",
    "reportedMeasurement": "≤ 50 nM"
  },
  {
    "inputSmiles": "Cn1cc(-c2cn3nccc3c(N3CC[C@H](CNC(=O)c4cn(C(C)(C)C)nn4)[C@H](F)C3)n2)cn1",
    "reportedMeasurement": "1 to 10 nM"
  },
  {
    "inputSmiles": "Nc1ncnc2c1n(-c1ccc(Oc3ccccc3)cc1)c(=O)n2-c1cccc(NC(=O)/C=C/CNC2CC2)c1",
    "reportedMeasurement": "< 100 nM"
  }
]

Form field IC50 for item `CN(C(=O)/C=C/CN(C)C1CC1)c1cccc(-n2c(=O)n(-c3ccc(Oc4ccccc4)cn3)c3c(N)ncnc32)c1` on BTK (Homo sapiens): < 100 nM

For the molecule `CC(C)c1ccccc1N[C@@H](C(=O)N[C@@H]1CCCN(c2ncnc3[nH]ccc23)C1)C1CC1` , the measured IC50 on BTK (Homo sapiens) was 100 to 999 nM

For the molecule `C=CC(=O)N1CCC[C@@H](n2nc(-c3ccc(C(=O)Nc4ccccc4)cc3)c3c(N)ncc(-c4cnn(C(F)F)c4)c32)C1` , the measured IC50 on BTK (Homo sapiens) was 10.2 nM

`C=CC(=O)Nc1cccc(Oc2nc(Nc3ccc(N4CCC(N5CCN(CC)CC5)CC4)cc3)nc3ccsc23)c1` tested on BTK (Homo sapiens) gave IC50: ≤ 50 nM

* * *

Compiled literature pIC50, tested on BTK (Homo sapiens).
pIC50: −log10 of the molar value.

Below: 6 compounds and their reported pIC50.
[
  {
    "compound": "Cc1c(-c2ccc(Oc3ccccc3)cc2)c2c(N)ncnc2n1C1CCN(C(=O)/C=C/CN(C)C2CC2)CC1",
    "pIC50": "> 7.00"
  },
  {
    "compound": "NC(=O)c1cn(C2CNC2)nc1-c1ccc(Oc2ccccc2)cc1",
    "pIC50": "≤ 6.00"
  },
  {
    "compound": "Cc1ccnc(NC(=O)c2ccc(-c3nn([C@@H]4CCCN(C(=O)/C=C/CN(C)C5CC5)C4)c4ncnc(N)c34)cc2)c1",
    "pIC50": "> 9.00"
  },
  {
    "compound": "C=CC(=O)N1CCC(c2nc(-c3ccc(Oc4cc(C(F)(F)F)ccn4)cc3)n3c(N)nccc23)C1 (stereo not shown)",
    "pIC50": "> 7.00"
  },
  {
    "compound": "O=C(O)/C=C/c1cccc(-c2ccnc3[nH]cc(C(=O)c4ccccc4F)c23)c1",
    "pIC50": "≥ 5.00"
  },
  {
    "compound": "C=CS(=O)(=O)N1CCOc2ccc(-c3csc4c(=O)cc(N5CCOCC5)oc34)cc21",
    "pIC50": "> 6.00"
  }
]

Next compound, pIC50 to be filled in.
Summary for this compound, `CN(C(=O)/C=C/CN(C)C1CC1)c1cccc(-n2c(Cl)c(-c3ccc(Cl)cc3)c3c(N)ncnc32)c1` : pIC50 is > 7.00

* * *

This section presents IC50 values reported for BTK (Homo sapiens) in the literature.

Consider the worked cases shown below.
[
  {
    "compound": "CC(C)(C)CN1CCN(Cc2ccc(-c3ccnc(Nc4cnn(CCO)c4)n3)cc2C(F)(F)F)C(=O)C1",
    "reportedMeasurement": "< 0.01 µM"
  },
  {
    "compound": "C=CC(=O)N(C)N1CCC[C@@H](n2nc(-c3ccc(Oc4ccccc4)cc3)c3c(N)ncnc32)C1",
    "reportedMeasurement": "0.00064 µM"
  },
  {
    "compound": "Nc1nccc(-c2ccc3c(c2)CCCC3NC(=O)c2cc3c(s2)CCCC3)n1 (stereo not shown)",
    "reportedMeasurement": "< 0.01 µM"
  }
]

// moving on: another record for IC50
Per the records, this compound ( `CN(C(=O)/C=C/CN1CCCC1)c1cccc(-n2c(=O)n(-c3ccc(Oc4ccccc4)cc3)c3c(N)ncnc32)c1` ) has IC50 equal to < 0.1 µM

* * *

Note to self: these compounds have IC50 reported for BTK (Homo sapiens, UniProt Q06187) in various publications.

# count of solved cases: 5
[
  {
    "compound": "CC#CC(=O)N[C@H]1C[C@H](F)CN(c2c(F)cc(C(N)=O)c3[nH]c(C)c(Cl)c23)C1",
    "IC50": "< 10 nM"
  },
  {
    "compound": "C=CC(=O)Nc1cccc(-c2cc(C)cc(Nc3cc(C)[nH]n3)n2)c1",
    "IC50": "6.1 nM"
  },
  {
    "compound": "C[C@H](Nc1ccccc1)C(=O)NC1CCCN(c2ncnc3[nH]ccc23)C1 (stereo partly shown)",
    "IC50": "> 10000 nM"
  },
  {
    "compound": "C=CC(=O)N1CC[C@]2(C1)C[C@H](n1c(NC(=O)c3ccc(-c4ccc(CO)nc4)s3)nc3ccccc31)C2",
    "IC50": "3.45 nM"
  },
  {
    "compound": "Cc1cc(-c2ccnc(Nc3cnn(C)c3)n2)ccc1CNC(=O)c1nc2c(s1)CCCC2",
    "IC50": "< 10 nM"
  }
]

The value of IC50 recorded for `CCC[C@@H](Nc1cc(Cl)cc(Cl)c1)C(=O)N[C@@H]1CCCN(c2ncnc3[nH]ncc23)C1` when tested on BTK (Homo sapiens, UniProt Q06187) reads < 100 nM

Test item `C=CC(=O)N1CC[C@@H](n2nc(-c3ccc(Oc4ccc(OC)cc4)cc3)c(C(N)=O)c2N)C1` ; BTK (Homo sapiens, UniProt Q06187); reported IC50 was < 100 nM

`N#Cc1cnc2[nH]cc(C(=O)c3cccc(NS(=O)(=O)c4c(F)cccc4F)c3F)c2c1` on BTK (Homo sapiens, UniProt Q06187) gives IC50 = ≤ 10000 nM

The compound CC(C)(C)c1ccc(C(=O)NC2CCCc3cc(-c4ncnc5[nH]ncc45)ccc32)cc1 (stereo not shown) , when measured on BTK (Homo sapiens, UniProt Q06187), yielded IC50 of 10 to 99 nM

Entry C=CC(=O)N1C2CC[C@@H](C2)C1c1nc(-c2ccc(Oc3ccccc3)cc2)c2c(N)nccn12 (stereo partly shown) , tested on BTK (Homo sapiens, UniProt Q06187), has a reported IC50 of 24 nM

* * *

pIC50: −log10 of the molar value.
The entries below pair compounds with pIC50 values for BTK (Homo sapiens), as found in several publications.

// below: answered compounds
[
  {
    "compound": "CC#CC(=O)N1C2CN[C@@H](C2)C1c1nc(-c2ccc(C(C)(O)c3ccccc3)cc2)c2c(N)nccn12 (some centres unmarked)",
    "studyTarget": "BTK (Homo sapiens)",
    "pIC50": 7.38
  },
  {
    "compound": "C=CC(=O)Nc1cc(F)cc(-c2cc(CN3CCOCC3)cc(Nc3ncc(C)s3)n2)c1",
    "studyTarget": "BTK (Homo sapiens)",
    "pIC50": "< 8.20"
  },
  {
    "compound": "C=CC(=O)Nc1cccc(-c2cc(-c3cccc(F)c3)cc3cncnc23)c1",
    "studyTarget": "BTK (Homo sapiens)",
    "pIC50": "> 7.00"
  },
  {
    "compound": "CS(=O)(=O)Nc1cccc(-c2cnc3[nH]cc(C(=O)c4cc(NS(=O)(=O)c5cccnc5)ccc4F)c3c2)c1",
    "studyTarget": "BTK (Homo sapiens)",
    "pIC50": "≥ 5.00"
  },
  {
    "compound": "O=C(CNC(=O)c1ccccc1Cl)NC1CCCN(c2ncnc3[nH]ccc23)C1 (centres unmarked)",
    "studyTarget": "BTK (Homo sapiens)",
    "pIC50": "5.00 to 6.00"
  }
]

Now consider the entry below.
Kindly note: BTK (Homo sapiens), CC1C(Nc2ncnc3[nH]ccc23)CCCN1C(=O)CNc1ccccc1S(=O)(=O)C1CCCC1 (centres unmarked) , pIC50 value reported: > 7.00
